# polymerase ribozyme fitness (log ratio) annotations
B1: TPR 5TU (parent)
chain: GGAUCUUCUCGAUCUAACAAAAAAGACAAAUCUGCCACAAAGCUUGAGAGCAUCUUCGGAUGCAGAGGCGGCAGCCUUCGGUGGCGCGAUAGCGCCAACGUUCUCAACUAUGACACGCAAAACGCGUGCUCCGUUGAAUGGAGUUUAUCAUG

# Variants of: B1
# assay.summary: polymerase ribozyme fitness, log enrichment relative to wild type (log ratio); higher = more active; in vitro selection for triplet polymerase activity
Variants at the floor of the assay were thinned out.
// no unit string in output, number only

Below are worked cases with known answers.
U53A C103G : -3.95
G48C A98G U101C U144A A147U : -0.0628
G50U U102A A142U : -2.57
A16C A20C C85A G141C : -2.3
C5G U55G G83U U101C : -2.49

Request: Give the measured polymerase ribozyme fitness (log ratio) of G25U G84U .
Response: -3.64

Request: Give the measured polymerase ribozyme fitness (log ratio) of G46A G81A G136A U146A .
Response: 0.373
